As shown below, each of these compounds has a reported Ki value.
target: M2 muscarinic receptor (Rattus norvegicus, UniProt P10980); construct: Submandibular glands and heart were isolated and placed in ice cold homogenising buffer; from tissue; host or cells: rat heart membrane homogenate; test: Radioligand binding assay, [3H]-N-methylscopolamine, rat heart membranes
Sequence (P10980 whole entry): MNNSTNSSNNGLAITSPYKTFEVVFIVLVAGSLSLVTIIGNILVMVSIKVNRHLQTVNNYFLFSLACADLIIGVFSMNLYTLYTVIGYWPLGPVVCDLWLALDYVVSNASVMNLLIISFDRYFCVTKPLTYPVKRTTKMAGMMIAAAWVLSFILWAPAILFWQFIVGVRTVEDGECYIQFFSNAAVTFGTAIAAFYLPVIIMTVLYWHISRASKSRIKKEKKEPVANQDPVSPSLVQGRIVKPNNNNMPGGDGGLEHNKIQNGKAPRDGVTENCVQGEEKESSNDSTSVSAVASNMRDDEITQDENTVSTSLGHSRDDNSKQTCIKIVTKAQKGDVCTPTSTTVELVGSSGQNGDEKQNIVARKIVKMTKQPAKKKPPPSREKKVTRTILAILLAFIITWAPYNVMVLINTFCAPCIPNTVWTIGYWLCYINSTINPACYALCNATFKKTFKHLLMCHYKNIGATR
Measured quantity: Ki (nM)

* O=C(NCC#CCN1C[C@H]2C[C@H]2C1)C(O)(c1ccccc1)C1CCCC1 (stereo partly shown) [Compound No. 10] | 425
* O=C(NCC#CCN1C[C@H]2C[C@H]2C1)C(O)(c1ccc(F)cc1)c1ccc(F)cc1 [Compound No. 12] | 736
* O=C(NCC#CCN1C[C@H]2C[C@H]2C1)C(O)(c1ccccc1)C1CCCCC1 (stereo partly shown) [Compound No. 9] | 3580
* O=C(NCC#CCN1C[C@H]2C[C@H]2C1)C(O)(c1ccccc1)c1ccccc1 [Compound No. 11] | 639
